Tested on: OVCAR-8 ovarian
TEST: NCI tumour cell line growth inhibition, 48 h
PROPERTY_NAME: TGI (µM)
Give bare numbers, in µM.

Below are worked cases with known answers.
STRUCTURE_NOTATION	MEASURED_ON	PROPERTY_NAME	QUANTITY_UNIT	MEAS_VALUE
COC(=O)C1=CN(CC2=CC(=O)C(C)=CC2=O)C=C(C(=O)OC)C1c1cccc(OC)c1OC	OVCAR-8 ovarian	TGI	µM	42.8
C=C1C(=O)O[C@H]2[C@H]1CC/C(COC(=O)NCCc1ccc(OC)cc1)=C\CC[C@@]1(C)O[C@@H]21	OVCAR-8 ovarian	TGI	µM	7.7
Cc1sc2ncnc(Sc3nc4ccccc4[nH]3)c2c1C	OVCAR-8 ovarian	TGI	µM	62.7

Next, consider the following molecule.
Query (molecule): FC(F)(F)c1ccc2c(c1)N(CCCN1CCN(C3CC3)CC1)c1ccccc1S2 ; field requested: TGI
26.8
